# System under test: T1, human HER3-Fc (R&D Systems, 348-RB) (human, UniProt P21860 20-643)
# T1 construct: Bought; also called hHER3-Fc; Fc-HER3; Fc part of the bought chimera not given, not described
# Protocol notes: 34C07 competition alphascreen
Assay metric: pIC50
Give bare numbers, as −log10 of the molar value.

1) HER3MS00127 (VHH) VHH: DVQLVESGGGLVQPGGSLRLSCAASGSIFRINAMAWYRQAPGKQRELVAEITAGGSTNYADSVKGRFTISRDNSWNTLYLQMNSLRPEDTAVYYCNLDHYTTWDRRSAYWGQGTLVTVSS = 8.07

For this binder ( HER3MS00124 (VHH) VHH: EVQLVESGGGLVQPGGSLRLSCAASGSIFRINAMAWYRQAPGKQRELVAEITAGGSTNYADSVKGRFTISRDNSWNTLYLQMNSLRAEDTAVYYCNLDHYTTWDRRSAYWGQGTLVTVSS ), measured pIC50 is 8.15

The measured values listed here are drawn from patent US20130136748A1.
